# MEASUREMENT TARGET: α-amylase (Homo sapiens)
# Sequence (P04746 16-511): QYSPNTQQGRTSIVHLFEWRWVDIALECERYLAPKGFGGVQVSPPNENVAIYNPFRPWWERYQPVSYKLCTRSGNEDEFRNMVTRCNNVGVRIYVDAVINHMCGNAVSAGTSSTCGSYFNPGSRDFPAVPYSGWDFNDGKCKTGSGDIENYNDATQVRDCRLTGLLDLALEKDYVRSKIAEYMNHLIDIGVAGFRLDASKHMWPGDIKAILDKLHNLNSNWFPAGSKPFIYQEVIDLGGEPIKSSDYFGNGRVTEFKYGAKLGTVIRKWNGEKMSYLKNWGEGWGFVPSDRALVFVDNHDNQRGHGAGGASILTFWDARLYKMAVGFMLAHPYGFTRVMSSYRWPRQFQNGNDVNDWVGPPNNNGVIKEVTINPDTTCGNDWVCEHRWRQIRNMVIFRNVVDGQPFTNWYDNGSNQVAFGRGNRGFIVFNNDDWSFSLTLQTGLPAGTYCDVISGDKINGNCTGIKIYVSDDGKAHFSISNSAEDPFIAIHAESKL
# EXPERIMENT DESCRIPTION: in vitro α-amylase inhibitory activity
# Format: biochemical
# CONDITION DESCRIPTION: 250 µM; read-out: % α-Amylase Inhibition (converted)
Some molecules, each annotated with its measured inhibition at 250 µM.
MEASURED QUANTITY: inhibition at 250 µM

INSERT INTO results (molecule, reported) VALUES
  ('CC(C)(C=C1SC(=O)N(C(=O)CN2CCOCC2)C1=O)C1CC(=O)N(Cc2ccccc2)C1=O (centres unmarked) [10d]', '76.3%'),
  ('CN1C(=O)C[C@@H](C(C)(C)/C=C2\SC(=O)N(C(=O)CN3CCOCC3)C2=O)C1=O [10b]', '74.7%'),
  ('CC(C)(/C=C1\SC(=O)N(C(=O)CN2CCOCC2)C1=O)[C@@H]1CC(=O)N(c2ccccc2)C1=O [10c]', '81.7%'),
  ('COc1ccc(N2C(=O)C[C@@H](C(C)(C)/C=C3\SC(=O)N(C(=O)CN4CCOCC4)C3=O)C2=O)cc1 [10e]', '88.6%'),
  ('CC(C)(/C=C1\SC(=O)N(C(=O)CN2CCOCC2)C1=O)[C@@H]1CC(=O)NC1=O [10a]', '77.6%');
